Examples of compounds with documented MIC follow.
test system: Klebsiella aerogenes; test: Antibacterial activity against Enterobacter aerogenes MTCC 111 after 24 hrs; type: functional; settings: MTCC 111, 24 h
Numeric answer only, unit µg/mL assumed.

Examples with their reported MIC follow.
>>> numeric_value("CN1C[C@](C#N)(C(=O)c2c[nH]c3ccccc23)[C@]2(C(=O)Nc3ccccc32)[C@@]12C(=O)Nc1ccc(F)cc12")
500
>>> numeric_value("CCCCN1C(=O)[C@@]2(c3ccccc31)N(C)C[C@](C#N)(C(=O)c1c[nH]c3ccccc13)[C@]21C(=O)Nc2ccccc21")
500
>>> numeric_value("Cc1ccc2c(c1)[C@]1(C(=O)N2)N(C)C[C@](C#N)(C(=O)c2c[nH]c3ccccc23)[C@]12C(=O)Nc1ccccc12")
500
>>> numeric_value("CN1C[C@](C#N)(C(=O)c2c[nH]c3ccccc23)[C@]2(C(=O)Nc3ccccc32)C12C(=O)c1cccc3cccc2c13 (some centres not stated)")
500

The reported Klebsiella aerogenes MIC of "CN1C(=O)[C@@]2(c3cc(Cl)ccc31)N(C)C[C@](C#N)(C(=O)c1c[nH]c3ccccc13)[C@]21C(=O)Nc2ccccc21" is 125

The reported Klebsiella aerogenes MIC of "CN1C(=O)[C@@]2(c3cc(F)ccc31)N(C)C[C@](C#N)(C(=O)c1c[nH]c3ccccc13)[C@]21C(=O)Nc2ccccc21" is 125

The reported Klebsiella aerogenes MIC of "CCCCCCN1C(=O)[C@@]2(c3ccccc31)N(C)C[C@](C#N)(C(=O)c1c[nH]c3ccccc13)[C@]21C(=O)Nc2ccccc21" is 500

----------
test system: A549; experiment: Cytotoxicity against human A549 cells assessed as cell death at 100 ug/ml by MTT assay; format: functional
Examples of compounds with documented Activity follow.
Numeric answer only, unit % assumed.

>>> numeric_value("CN1C[C@](C#N)(C(=O)c2c[nH]c3ccccc23)[C@]2(C(=O)Nc3ccccc32)C12C(=O)c1cccc3cccc2c13 (some centres undefined)")
21.61
>>> numeric_value("CN1C[C@](C#N)(C(=O)c2c[nH]c3ccccc23)[C@]2(C(=O)Nc3ccccc32)[C@@]12C(=O)Nc1ccc(F)cc12")
10.82
>>> numeric_value("CN1C[C@](C#N)(C(=O)c2c[nH]c3ccccc23)[C@]2(C(=O)Nc3ccccc32)[C@@]12C(=O)Nc1ccc(I)cc12")
9.66

Now let's try a different one.
The reported A549 Activity of "Cc1ccc2c(c1)[C@]1(C(=O)N2)N(C)C[C@](C#N)(C(=O)c2c[nH]c3ccccc23)[C@]12C(=O)Nc1ccccc12" is 56.34
